Endpoint: IC50. System: Aurora kinase A (Homo sapiens). Items follow.
Sequence (O14965 whole entry): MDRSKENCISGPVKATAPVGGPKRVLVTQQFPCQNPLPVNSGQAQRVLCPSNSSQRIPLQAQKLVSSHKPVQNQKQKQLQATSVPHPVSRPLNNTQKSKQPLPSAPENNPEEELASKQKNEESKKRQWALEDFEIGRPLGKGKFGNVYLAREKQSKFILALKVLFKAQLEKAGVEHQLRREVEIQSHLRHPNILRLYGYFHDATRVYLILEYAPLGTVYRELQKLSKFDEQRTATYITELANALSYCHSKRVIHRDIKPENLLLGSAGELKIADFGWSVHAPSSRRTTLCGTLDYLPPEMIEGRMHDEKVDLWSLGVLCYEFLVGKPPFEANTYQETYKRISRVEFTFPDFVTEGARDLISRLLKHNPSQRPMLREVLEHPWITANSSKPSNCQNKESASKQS
readout-label: IC50 (nM)

As a guide, the following entries are already answered.
- query-smiles: "Cc1cc(CN2CCN(c3c(Cl)cnc4nc(-c5ccc(Cn6cccn6)cc5)[nH]c34)CC2)no1"
  readout-label: "IC50"
  assay-result: 3
- query-smiles: "Cc1cc(CN2CCN(c3c(Cl)cnc4nc(-c5ccc(OCCO)cc5)[nH]c34)CC2)no1"
  readout-label: "IC50"
  assay-result: 29
- query-smiles: "Cc1cc(CN2CCN(c3c(Cl)cnc4nc(-c5ccc(N6CCN(C)CC6)cc5)[nH]c34)CC2)no1"
  readout-label: "IC50"
  assay-result: 10

1 = CN(C)c1ccc(-c2nc3c(N4CCN(CC(=O)Nc5ccccc5)CC4)c(Br)cnc3[nH]2)cc1
2 = Cc1cc(CN2CCN(c3c(Br)cnc4[nH]c(-c5ccc(N6CCNCC6)cc5)nc34)CC2)no1
Lab note: check whether 1 or 2 has the lower measured IC50. Lab note: record the label of whichever item you select. 2
(2: 10 nM, 1: 277 nM)
